experimentDescription: Cmax in HIV-negative human at 300 mg, po administered every 12 hrs coadministered with 600 mg of rifampin every 24 hrs
Format: ADME, organism-based
Parameters: dose 300 mg, route oral
appliedConditions: in vivo
reportedProperty: Cmax (ng/mL)
Respond numerically; units are ng/mL and should not be typed.

The reported value for COC(=O)N[C@H](C(=O)N[C@@H](Cc1ccccc1)[C@@H](O)CN(Cc1ccc(-c2ccccn2)cc1)NC(=O)[C@@H](NC(=O)OC)C(C)(C)C)C(C)(C)C [ATAZANAVIR] in terms of Cmax is 1430

---

experimentDescription: Half life in HIV-negative human at 400 mg, po administered every 12 hrs coadministered with 600 mg of rifampin every 24 hrs
Assay type: ADME, organism-based
appliedConditions: in vivo
reportedProperty: half-life
Include the unit after the number when you answer.

The reported value for COC(=O)N[C@H](C(=O)N[C@@H](Cc1ccccc1)[C@@H](O)CN(Cc1ccc(-c2ccccn2)cc1)NC(=O)[C@@H](NC(=O)OC)C(C)(C)C)C(C)(C)C [ATAZANAVIR] in terms of half-life is 2.4 h
